- studyTarget: UniProt:O35240
- Sequence (O35240 whole entry): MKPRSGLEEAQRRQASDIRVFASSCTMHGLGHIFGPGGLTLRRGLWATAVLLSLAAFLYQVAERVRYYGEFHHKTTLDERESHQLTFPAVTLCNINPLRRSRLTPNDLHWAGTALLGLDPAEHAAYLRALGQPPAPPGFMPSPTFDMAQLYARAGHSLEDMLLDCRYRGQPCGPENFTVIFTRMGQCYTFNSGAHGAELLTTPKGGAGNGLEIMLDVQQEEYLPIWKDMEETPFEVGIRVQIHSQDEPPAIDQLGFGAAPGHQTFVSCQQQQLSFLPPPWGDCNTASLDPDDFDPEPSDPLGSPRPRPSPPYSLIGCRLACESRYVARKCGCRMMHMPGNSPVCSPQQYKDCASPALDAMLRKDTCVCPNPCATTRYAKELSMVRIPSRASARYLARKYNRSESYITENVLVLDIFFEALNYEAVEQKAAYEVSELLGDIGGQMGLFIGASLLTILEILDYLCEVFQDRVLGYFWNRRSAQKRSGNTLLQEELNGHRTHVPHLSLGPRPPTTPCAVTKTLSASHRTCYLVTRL
- measurementProtocol: Inhibition of rat ASIC3 receptor expressed in xenopus lavies oocytes assessed as inhibition of pH 6.4-gated currents by two electrode voltage clamp
observable: IC50 (µM)
Please give a number only; it is taken to be in µM.

Sample answers from the record:
>  <compound>
Cc1ccc(C(C)C(=O)O)cc1 (stereo unspecified)

>  <studyTarget>
UniProt:O35240

>  <recordedResult>
708

$$$$
>  <compound>
CC(C)Cc1ccc(C(=O)O)cc1

>  <studyTarget>
UniProt:O35240

>  <recordedResult>
302

$$$$
>  <compound>
CC(C)Cc1ccc(CC(=O)O)cc1 [IBUFENAC]

>  <studyTarget>
UniProt:O35240

>  <recordedResult>
417

$$$$

Kindly note the recorded IC50 for CC(C)Cc1ccc(C(F)C(=O)O)cc1 (stereo unspecified) , which is 891

IC50 recorded for this compound, CC(C(=O)O)c1ccc(-c2ccccc2)c(F)c1 (racemic) [FLURBIPROFEN] , is 229

Just so you know, measured IC50 for CCC(C(=O)O)c1ccc(CC(C)C)cc1 (stereo unspecified) [BUTIBUFEN] came out at 288

====

- studyTarget: UniProt:P55926
- Sequence (P55926 whole entry): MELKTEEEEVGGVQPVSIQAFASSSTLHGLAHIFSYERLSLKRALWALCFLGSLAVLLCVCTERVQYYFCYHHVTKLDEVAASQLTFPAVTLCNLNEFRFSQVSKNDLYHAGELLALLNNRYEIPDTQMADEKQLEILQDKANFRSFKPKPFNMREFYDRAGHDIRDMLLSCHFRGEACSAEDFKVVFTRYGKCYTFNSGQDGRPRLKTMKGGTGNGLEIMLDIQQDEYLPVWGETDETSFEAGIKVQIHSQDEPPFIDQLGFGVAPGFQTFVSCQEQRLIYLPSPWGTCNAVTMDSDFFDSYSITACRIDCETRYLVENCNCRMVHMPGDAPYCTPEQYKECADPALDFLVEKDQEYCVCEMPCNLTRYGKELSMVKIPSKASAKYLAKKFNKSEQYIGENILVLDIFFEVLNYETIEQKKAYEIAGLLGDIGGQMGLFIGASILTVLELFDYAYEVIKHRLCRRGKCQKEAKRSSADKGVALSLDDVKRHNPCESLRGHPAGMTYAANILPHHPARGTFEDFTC
- measurementProtocol: Inhibition of rat ASIC1a receptor expressed in xenopus lavies oocytes assessed as inhibition of pH 6.7-gated currents by two electrode voltage clamp
Entries and their IC50 values follow.
Kindly answer with a numeric value in µM, unit omitted.

Record excerpt, results attached:
>  <compound>
CC(C(=O)O)c1ccc(-c2ccccc2)c(F)c1 (racemic) [FLURBIPROFEN]

>  <IC50, µM>
170

$$$$
>  <compound>
CCC(C(=O)O)c1ccc(CC(C)C)cc1 (stereo unspecified) [BUTIBUFEN]

>  <IC50, µM>
182

$$$$
>  <compound>
CC(C)Cc1ccc(C(F)C(=O)O)cc1 (stereo unspecified)

>  <IC50, µM>
955

$$$$
>  <compound>
CC(C)Cc1ccc(C(=O)O)cc1

>  <IC50, µM>
417

$$$$

Proceeding to the next compound to report its IC50.
IC50 reported for this compound CC(C)Cc1ccc(CC(=O)O)cc1 [IBUFENAC] : 1020

Data provenance is ChEMBL document CHEMBL4028862.
